Tested on: Candida parapsilosis
Test: Antifungal activity against Candida parapsilosis ATCC 90018 WTBF-88 by microbroth dilution method
Format: functional
Details: Lodderomyces parapsilosis
measured metric: MIC (µg/mL)
One number for each entry, in µg/mL.

Completed entries (count: 3):
>>> numeric_value("CC(=O)O.c1cc2cc(-c3ccc(-c4ccc5cc(C6=NCCCN6)oc5c4)cc3)[nH]c2cc1C1=NCCCN1")
0.13
>>> numeric_value("CC(=O)O.c1cn2cc(-c3ccc(-c4ccc5cc(C6=NCCCN6)oc5c4)cc3)nc2cc1C1=NCCCN1")
2.52
>>> numeric_value("O=C(O)C(F)(F)F.c1cc2cc(-c3ccc(-c4cn5cc(C6=NCCCN6)ccc5n4)cc3)[nH]c2cc1C1=NCCCN1")
0.25

Please turn your attention to the following entry.
Which MIC reading was recorded for the compound `OC(Cn1cncn1)(Cn1cncn1)c1ccc(F)cc1F` ?
1

###

Experiment: Metabolic stability in liver microsomes (unknown origin)
Format: ADME
measured metric: Stability

Completed entries (count: 4):
>>> result("c1cc2cc(CCCCc3cc4ccc(C5=NCCCN5)cc4[nH]3)[nH]c2cc1C1=NCCCN1")
"Stable"
>>> result("CC(=O)O.c1cc2cc(-c3ccc4oc(C5=NCCCN5)cc4c3)[nH]c2cc1C1=NCCCN1")
"Stable"
>>> result("CC(=O)O.c1cc2cc(-c3cnc(-c4cc5ccc(C6=NCCCN6)cc5[nH]4)nc3)[nH]c2cc1C1=NCCCN1")
"Stable"
>>> result("O=C(O)C(F)(F)F.OC1CN=C(c2ccc3cc(-c4ccc(-c5cc6ccc(C7=NCC(O)CN7)cc6[nH]5)cc4)[nH]c3c2)NC1 (stereo unspecified)")
"Stable"

Would you mind giving Stability for every compound in the list below?
1. Cl.N=C(N)c1ccc2cc(-c3ccc(-c4cc5ccc(C(=N)N)cc5[nH]4)cc3)[nH]c2c1
2. CN(C)CCNC(=N)c1ccc2cc(-c3ccc(-c4cc5ccc(C(=N)NCCN(C)C)cc5[nH]4)cc3)[nH]c2c1.O=C(O)C(F)(F)F

1. Stable
2. Stable

###

Tested on: HeLa
Assay: Cytotoxicity against human HeLa cells assessed as cell viability after 72 hrs by MTS assay
Type: cell-based
measured metric: CC50 (µg/mL)
Answers are plain numbers, in µg/mL.

Completed entries (count: 3):
>>> numeric_value("CC1CNC(c2ccc3cc(-c4ccc(-c5cc6ccc(C7=NC(C)CN7)cc6[nH]5)cc4)[nH]c3c2)=N1.O=C(O)C(F)(F)F (stereo not given)")
66.5
>>> numeric_value("COCCNC(=N)c1ccc2cc(-c3ccc(-c4cc5ccc(C(=N)NCCOC)cc5[nH]4)cc3)[nH]c2c1.O=C(O)C(F)(F)F")
3.5
>>> numeric_value("O=C(O)C(F)(F)F.c1cc2cc(-c3ccc(-c4cc5ccc(C6=NCCN6)cc5[nH]4)cc3)[nH]c2cc1C1=NCCN1")
32.5

Would you mind giving CC50 for every compound in the list below?
1. Clc1c(-c2ccc(-c3[nH]c4cc(C5=NCCCN5)ccc4c3Cl)cc2)[nH]c2cc(C3=NCCCN3)ccc12.O=C(O)C(F)(F)F
2. N=C(NCCN1CCOCC1)c1ccc2cc(-c3ccc(-c4cc5ccc(C(=N)NCCN6CCOCC6)cc5[nH]4)cc3)[nH]c2c1.O=C(O)C(F)(F)F
3. CC(=O)O.c1cc2cc(-c3ccc4oc(C5=NCCCN5)cc4c3)[nH]c2cc1C1=NCCCN1

0.65
24.9
50.5

Would you mind giving CC50 for every compound in the list below?
1. FC1CN=C(c2ccc3cc(-c4ccc(-c5cc6ccc(C7=NCC(F)CN7)cc6[nH]5)cc4)[nH]c3c2)NC1.O=C(O)C(F)(F)F (stereo not given)
2. N=C(NCCO)c1ccc2cc(-c3ccc(-c4cc5ccc(C(=N)NCCO)cc5[nH]4)cc3)[nH]c2c1.O=C(O)C(F)(F)F
3. CC(=O)O.c1cc2nc(-c3ccc(-c4ccc5cc(C6=NCCCN6)oc5c4)cc3)cn2cc1C1=NCCCN1

1: 13.9; 2: 14; 3: 25.5

Would you mind giving CC50 for every compound in the list below?
1. CC(=O)O.c1cc2cc(-c3ccc(-c4ccn5cc(C6=NCCCN6)nc5c4)cc3)[nH]c2cc1C1=NCCCN1
2. c1cc2cc(CCCCc3cc4ccc(C5=NCCCN5)cc4[nH]3)[nH]c2cc1C1=NCCCN1
3. CC(=O)O.c1cc2cc(-c3ccc(-c4cc5ccc(C6=NCCCN6)cc5o4)cc3)[nH]c2cc1C1=NCCCN1
4. CC(=O)O.c1cc2cc(-c3ccc(-c4c[nH]c5cc(C6=NCCCN6)ccc45)cc3)[nH]c2cc1C1=NCCCN1
5. c1cc2[nH]c(-c3ccc(-c4cc5ccc(C6=NCCCN6)cc5[nH]4)cc3)cc2cc1C1=NCCCN1
6. CC1(C)CN=C(c2ccc3cc(-c4ccc(-c5cc6ccc(C7=NCC(C)(C)CN7)cc6[nH]5)cc4)[nH]c3c2)NC1.O=C(O)C(F)(F)F

1: 13.4; 2: 14.7; 3: 4.7; 4: 2.4; 5: 13.6; 6: 8

###

Tested on: Candida parapsilosis
Experiment: Antifungal activity against Candida parapsilosis ATCC 90018 WTBF-88 by microbroth dilution method
Format: functional
Conditions: Lodderomyces parapsilosis
measured metric: MIC (µg/mL)
Give bare numbers, in µg/mL.

Completed entries (count: 7):
>>> numeric_value("N=C(NCCO)c1ccc2cc(-c3ccc(-c4cc5ccc(C(=N)NCCO)cc5[nH]4)cc3)[nH]c2c1.O=C(O)C(F)(F)F")
0.25
>>> numeric_value("CC(=O)O.c1cc2cc(-c3ccc(-c4ccn5cc(C6=NCCCN6)nc5c4)cc3)[nH]c2cc1C1=NCCCN1")
0.31
>>> numeric_value("COCCNC(=N)c1ccc2cc(-c3ccc(-c4cc5ccc(C(=N)NCCOC)cc5[nH]4)cc3)[nH]c2c1.O=C(O)C(F)(F)F")
0.79
>>> numeric_value("CC(=O)O.c1cc2nc(-c3ccc(-c4ccc5cc(C6=NCCCN6)oc5c4)cc3)cn2cc1C1=NCCCN1")
2
>>> numeric_value("CC1CN=C(c2ccc3cc(-c4ccc(-c5cc6ccc(C7=NCC(C)CN7)cc6[nH]5)cc4)[nH]c3c2)NC1.O=C(O)C(F)(F)F (stereo not drawn)")
0.25
>>> numeric_value("CC(=O)O.c1cc2cc(-c3ccc(-c4ccc5nc(C6=NCCCN6)cn5c4)cc3)oc2cc1C1=NCCCN1")
0.79
>>> numeric_value("CC(=O)O.c1cc2cc(-c3ccc4cc(C5=NCCCN5)[nH]c4c3)sc2cc1C1=NCCCN1")
2

Which MIC reading was recorded for the molecule `O=C(O)C(F)(F)F.c1cc2cc(-c3ccc(-c4cn5ccc(C6=NCCCN6)cc5n4)cc3)[nH]c2cc1C1=NCCCN1` ?
0.5

###

System: Candida parapsilosis
Assay: Antifungal activity against Candida parapsilosis ATCC 90018 WTBF-88 by microbroth dilution method
Assay type: functional
Settings: Lodderomyces parapsilosis
What MIC was measured for each of the following?
Numbers only, in µg/mL.

>>> numeric_value("CC(=O)O.c1cc2cc(-c3ccc(-c4cc5ccc(C6=NCCCN6)cc5o4)cc3)[nH]c2cc1C1=NCCCN1")
0.25
>>> numeric_value("CN1CCCN=C1c1ccc2cc(-c3ccc(-c4cc5ccc(C6=NCCCN6C)cc5[nH]4)cc3)[nH]c2c1")
1
>>> numeric_value("CC(=O)O.c1cc2cc(-c3ccc(-c4ccc5nc(C6=NCCCN6)cn5c4)cc3)[nH]c2cc1C1=NCCCN1")
0.5

Please turn your attention to the following entry.
Which MIC reading was recorded for the compound CC(=O)N1CCN(c2ccc(OCC3COC(Cn4ccnc4)(c4ccc(Cl)cc4Cl)O3)cc2)CC1 (centres undefined) [KETOCONAZOLE] ?
0.06

###

System: Candida albicans
Test: Antifungal activity against Candida albicans WTBF-50 by microbroth dilution method
Type: functional
What log10 of MIC was measured for each of the following?
Annotation: log10 of MIC, µg/mL basis.

Completed entries (count: 3):
>>> numeric_value("Nc1nc(=O)[nH]cc1F")
0.10
>>> numeric_value("CC(=O)O.c1cc2cc(-c3ccc(-c4cc5ccc(C6=NCCCN6)cc5o4)cn3)[nH]c2cc1C1=NCCCN1")
-0.30
>>> numeric_value("CC(=O)O.c1cc2cc(-c3ccc(-c4cc5ccc(C6=NCCCN6)cc5o4)cc3)[nH]c2cc1C1=NCCCN1")
-0.30

Would you mind giving log10 of MIC for every molecule in the list below?
1. O=C(O)C(F)(F)F.OC1CN=C(c2ccc3cc(-c4ccc(-c5cc6ccc(C7=NCC(O)CN7)cc6[nH]5)cc4)[nH]c3c2)NC1 (stereo not drawn)
2. O=C(O)C(F)(F)F.c1cc2cc(CCc3cc4ccc(C5=NCCCN5)cc4[nH]3)[nH]c2cc1C1=NCCCN1
3. CC(=O)O.c1cc2cc(-c3ccc(-c4c[nH]c5cc(C6=NCCCN6)ccc45)cc3)[nH]c2cc1C1=NCCCN1
4. CC(=O)O.c1cc2cc(-c3cnc(-c4cc5ccc(C6=NCCCN6)cc5[nH]4)cn3)[nH]c2cc1C1=NCCCN1
5. N=C(NC1CCC(O)CC1)c1ccc2cc(-c3ccc(-c4cc5ccc(C(=N)NC6CCC(O)CC6)cc5[nH]4)cc3)[nH]c2c1.O=C(O)C(F)(F)F (stereo not drawn)

[-0.30, 0.50, -0.60, -0.30, 0.40]
